test system: SH-SY5Y; test: Cytotoxicity against human SH-SY5Y cells up to 20 uM for 24 hrs by MTT assay; assay type: cell-based
MEASURED METRIC: Activity

| CHEM SMILES | DATA VALUE |
| --- | --- |
| O=C1C(c2ccc(O)cc2)=CC(=O)c2c(O)cccc21 | Non-toxic |
| O=C1C=C(c2ccc(F)cc2)C(=O)C=C1c1ccccc1 | 78.08% |
| COc1ccc(C2=CC(=O)C=C(c3ccccc3)C2=O)cc1 | Non-toxic |
| O=C1C(c2ccccc2)=CC(=O)c2c(O)cccc21 | Non-toxic |
| Oc1cc(-c2ccccc2)c(O)cc1-c1ccccc1 | Non-toxic |
| COc1cccc2c1C(=O)C(c1ccc(O)cc1)=CC2=O | Non-toxic |
| COc1ccc(-c2cc(O)cc(-c3ccccc3)c2OC(C)=O)cc1 | Non-toxic |
| COc1ccc(C2=CC(=O)C=C(c3ccc(F)cc3)C2=O)cc1 | 62.5% |
| O=C1C=C(c2ccccc2)C(=O)C(c2ccc(C(F)(F)F)cc2)=C1 | 100% |
| COc1ccc(C2=CC(=O)C(c3ccc(F)cc3)=CC2=O)cc1 | 66.22% |
| COc1ccc(-c2cc(OC(C)=O)c(-c3ccc(OC)cc3)cc2OC(C)=O)cc1 | Non-toxic |
| O=C1C=C(c2ccc(O)cc2)C(=O)c2ccccc21 | Non-toxic |
| COc1ccc(C2=CC(=O)C(c3ccccc3)=CC2=O)cc1 | 56.29% |
| CC(=O)Oc1cc(-c2ccccc2)c(OC(C)=O)c(-c2ccccc2)c1 | Non-toxic |
| CC(=O)Oc1cc(-c2ccc(C(F)(F)F)cc2)c(OC(C)=O)cc1-c1ccccc1 | Non-toxic |
| O=C1C=C(c2ccccc2)C(=O)C=C1c1ccccc1 | Toxic |
| O=C1C=C(c2ccc(C(F)(F)F)cc2)C(=O)C=C1c1ccccc1 | Non-toxic |
| COc1ccc(C2=CC(=O)c3c(OC)cccc3C2=O)cc1 | Non-toxic |
| COc1ccc(-c2cc(OC(C)=O)cc(-c3ccccc3)c2OC(C)=O)cc1 | Non-toxic |
| COc1ccc(-c2cc(O)cc(-c3ccccc3)c2O)cc1 | Non-toxic |
| COc1ccc(C2=CC(=O)C(c3ccc(OC)cc3)=CC2=O)cc1 | Non-toxic |
| O=C1C=C(c2ccccc2)C(=O)C(c2ccccc2)=C1 | Non-toxic |
| O=C1C=C(c2ccccc2)C(=O)c2c(O)cccc21 | Non-toxic |
| O=C1C=C(c2ccccc2)C(=O)c2ccccc21 | Non-toxic |

Hey, just so you know, these numbers are from ChEMBL document CHEMBL1759947.
